Read-out record for PIK3CA (human) (UniProt P42336): pIC50
// scale note: pIC50 = -log10(conc_M); give the bare number

                                   molecule  quantitative_result
0  CCc1ncnc(-c2ccc(C(=O)N3C[C@H]4C[C@@H]3CN4C)c(F)c2)c1C#Cc1ccc(N)nc1                 6.48
1  CCc1ncnc(-c2ccc(C(=O)N3CCCC(N(C)C)C3)c(C)c2)c1C#Cc1ccc(N)nc1 (centres undefined)                 6.76
2  CCc1ncnc(-c2ccc(C(=O)N(C)CCN3CCCC3=O)c(C)c2)c1C#Cc1ccc(N)nc1                 7.50
3  CCc1ncnc(-c2ccc(C(=O)N3CC[S+]([O-])CC3)c(F)c2)c1C#Cc1ccc(N)nc1                 7.34
4  CCc1ncnc(-c2ccc(C(=O)N3CCC(N4CCC(C)CC4)C3)c(C)c2)c1C#Cc1ccc(N)nc1 (centres undefined)                 6.70
5  CCc1ncnc(-c2ccc(C(=O)N3CCN4CCCCC4C3)c(C)c2)c1C#Cc1ccc(N)nc1 (centres undefined)                 6.94

Can you share its pIC50? I mean this molecule: "CCc1ncnc(-c2ccc(C(=O)N3CCN(S(=O)(=O)CC)CC3)c(C)c2)c1C#Cc1ccc(N)nc1" 7.43

Can you share its pIC50? I mean this molecule: "CCc1ncnc(-c2ccc(C(=O)N3CCN(c4ccncc4)CC3)c(Cl)c2)c1C#Cc1ccc(N)nc1" 6.68

Can you share its pIC50? I mean this molecule: "CCc1ncnc(-c2ccc(Cl)c(C(=O)N(C)C)c2)c1C#Cc1ccc(N)nc1" 6.71
